Tested on: 898857-211-R-J1-PDC complex spheroids, growth % test/control;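 note: spheroids exposed to compound for seven days before readout; 100% = DMSO vehicle control wells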
Experiment: Anticancer human tumor 898857-211-R-J1-PDC patient-derived melanoma cell line growth inhibition [RAS]
Conditions: second compound 0.00949 µM; first compound 0.01 µM; hits give low values
Source text: RAS pathway inhibitors in Combinations in Complex Spheroids A high-throughput screen of multi-cell type tumor spheroids was designed to identify active combinations of RAS pathway inhibitors and targeted small molecules. Complex spheroids include a stromal component modeled by human endothelial cells (HUVEC) and fibroblasts modeled by human mesenchymal stem cells (MSCs). […] Compounds. […] If the clinical Cmax for an agent had not been determined, the highest concentration tested was 10 microM. […]
readout_label: viability, T/C (%)
Numbers only, in %.

The following molecules have reported results that may help.
• CC(C)n1nc(-c2ccc3oc(N)nc3c2)c2c(N)ncnc21 + CCn1c(-c2cc(N3CCN(C)CC3)cnc2C(C)OC)c2c3cc(ccc31)-c1csc(n1)CC(NC(=O)C1CC1C)C(=O)N1CCCC(N1)C(=O)OCC(C)(C)C2 = 63.5
• C=CC(=O)Nc1cc(Nc2nccc(-c3cn(C)c4ccccc34)n2)c(OC)cc1N(C)CCN(C)C + CCn1c(-c2cc(N3CCN(C)CC3)cnc2C(C)OC)c2c3cc(ccc31)-c1csc(n1)CC(NC(=O)C1CC1C)C(=O)N1CCCC(N1)C(=O)OCC(C)(C)C2 = 112
• C=CC(=O)N1CCN(c2nc(OCC3CCCN3C)nc3c(F)c(-c4nc(N)cc(C)c4C(F)(F)F)c(Cl)cc23)C(C)C1 (stereo not given) + CCn1c(-c2cc(N3CCN(C)CC3)cnc2C(C)OC)c2c3cc(ccc31)-c1csc(n1)CC(NC(=O)C1CC1C)C(=O)N1CCCC(N1)C(=O)OCC(C)(C)C2 = 112
• Nc1ccn(C2OC(CO)C(O)C2(F)F)c(=O)n1 (stereo not given) + CCn1c(-c2cccnc2C(C)OC)c2c3cc(ccc31)N1CCOC(CC(NC(=O)C(C(C)C)N(C)C(=O)C3(F)CCN(C(=O)C#CC(C)(C)N(C)C)CC3)C(=O)N3CCCC(N3)C(=O)OCC(C)(C)C2)C1 = 25.6
• CCN1CCN(Cc2ccc(Nc3ncc(F)c(-c4cc(F)c5nc(C)n(C(C)C)c5c4)n3)nc2)CC1 + CCn1c(-c2cc(N3CCN(C)CC3)cnc2C(C)OC)c2c3cc(ccc31)-c1csc(n1)CC(NC(=O)C1CC1C)C(=O)N1CCCC(N1)C(=O)OCC(C)(C)C2 = 97.4
• O=C(c1ccc(F)c(F)c1Nc1ccc(I)cc1F)N1CC(O)([C@@H]2CCCCN2)C1 + CCn1c(-c2cccnc2C(C)OC)c2c3cc(ccc31)N1CCOC(CC(NC(=O)C(C(C)C)N(C)C(=O)C3(F)CCN(C(=O)C#CC(C)(C)N(C)C)CC3)C(=O)N3CCCC(N3)C(=O)OCC(C)(C)C2)C1 = 39.3
• Nc1ccn(C2OC(CO)C(O)C2(F)F)c(=O)n1 (stereo not given) + CCn1c(-c2cc(N3CCN(C)CC3)cnc2C(C)OC)c2c3cc(ccc31)-c1csc(n1)CC(NC(=O)C1CC1C)C(=O)N1CCCC(N1)C(=O)OCC(C)(C)C2 = 14.4
• C=CC(=O)Nc1cc(Nc2nccc(-c3cn(C)c4ccccc34)n2)c(OC)cc1N(C)CCN(C)C + CCn1c(-c2cccnc2C(C)OC)c2c3cc(ccc31)N1CCOC(CC(NC(=O)C(C(C)C)N(C)C(=O)C3(F)CCN(C(=O)C#CC(C)(C)N(C)C)CC3)C(=O)N3CCCC(N3)C(=O)OCC(C)(C)C2)C1 = 97.8
• CC(C)n1nc(-c2ccc3oc(N)nc3c2)c2c(N)ncnc21 + CCn1c(-c2cccnc2C(C)OC)c2c3cc(ccc31)N1CCOC(CC(NC(=O)C(C(C)C)N(C)C(=O)C3(F)CCN(C(=O)C#CC(C)(C)N(C)C)CC3)C(=O)N3CCCC(N3)C(=O)OCC(C)(C)C2)C1 = 75.1

(Q) # query: viability, T/C of entry O=C(c1ccc(F)c(F)c1Nc1ccc(I)cc1F)N1CC(O)([C@@H]2CCCCN2)C1 + CCn1c(-c2cc(N3CCN(C)CC3)cnc2C(C)OC)c2c3cc(ccc31)-c1csc(n1)CC(NC(=O)C1CC1C)C(=O)N1CCCC(N1)C(=O)OCC(C)(C)C2
(A) 20.5
